biological target: EGFR G719A (Homo sapiens, UniProt P00533, G719A); construct: expressed in transfected cells; host or cells: Ba/F3; assay: Ba/F3 drug screening, Cell Titer Glo, IC50 Mut/WT; assay type: cell-based; details: PACC; G719A; Ba/F3; 72 hours
readout_name: ratio of IC50 for cells with mutant EGFR to IC50 for cells with wildtype EGFR (Mut/WT)

CNC(=O)CN1CCC(Oc2cc3c(Nc4cccc(Cl)c4F)ncnc3cc2OC)CC1
0.01264

a: CN(C)C/C=C/C(=O)Nc1cc2c(Nc3ccc(Cl)c(Br)c3)ncnc2cn1
b: COc1cc2ncnc(Nc3ccc(F)c(Cl)c3)c2cc1NC(=O)/C=C/CN1CCCCC1
c: COc1cc2ncnc(Nc3cccc(Cl)c3F)c2cc1OC(=O)N1CCN(C)C[C@H]1C
Highest ratio of IC50 for cells with mutant EGFR to IC50 for cells with wildtype EGFR (Mut/WT) first, then in falling order down to the smallest. Please respond by ranking the labels in the order requested.
c, a, b
(c: 0.1002, a: 0.01637, b: 0.001888)

----------
target: EGFR Ex19del/C797S (Homo sapiens, UniProt P00533, C797S/DEL746-750); construct: expressed in transfected cells; host or cells: Ba/F3; test: Ba/F3 drug screening, Cell Titer Glo, IC50 Mut/WT; type: cell-based; details: PACC; Ex19del/C797S; Ba/F3; 72 hours
readout_name: ratio of IC50 for cells with mutant EGFR to IC50 for cells with wildtype EGFR (Mut/WT)

# count of solved cases: 2
COc1cc2ncnc(Nc3ccc(F)c(Cl)c3)c2cc1NC(=O)/C=C/CN1CCCCC1
0.01762
CNC(=O)CN1CCC(Oc2cc3c(Nc4cccc(Cl)c4F)ncnc3cc2OC)CC1
0.0006085

P: COc1cc2ncnc(Nc3cccc(Cl)c3F)c2cc1OC(=O)N1CCN(C)C[C@H]1C
Q: CN(C)C/C=C/C(=O)Nc1cc2c(Nc3ccc(Cl)c(Br)c3)ncnc2cn1
Pick one: P or Q . Which has the bigger ratio of IC50 for cells with mutant EGFR to IC50 for cells with wildtype EGFR (Mut/WT) number? Reply briefly: the label of your chosen item.
Q
(Q: 0.2272, P: 0.0001375)

----------
target: EGFR E709K G719S (Homo sapiens, UniProt P00533, E709K/G719S); construct: expressed in transfected cells; host or cells: Ba/F3; assay: Ba/F3 drug screening, Cell Titer Glo, IC50 Mut/WT; format: cell-based; details: PACC; E709K G719S; Ba/F3; 72 hours
readout_name: ratio of IC50 for cells with mutant EGFR to IC50 for cells with wildtype EGFR (Mut/WT)

Here are 2 compounds together with their reported answers.
COc1cc2ncnc(Nc3ccc(F)c(Cl)c3)c2cc1NC(=O)/C=C/CN1CCCCC1
0.001358
CNC(=O)CN1CCC(Oc2cc3c(Nc4cccc(Cl)c4F)ncnc3cc2OC)CC1
0.01102

1: COc1cc2ncnc(Nc3cccc(Cl)c3F)c2cc1OC(=O)N1CCN(C)C[C@H]1C
2: CN(C)C/C=C/C(=O)Nc1cc2c(Nc3ccc(Cl)c(Br)c3)ncnc2cn1
Select one: 1 or 2 . Criterion: greater recorded ratio of IC50 for cells with mutant EGFR to IC50 for cells with wildtype EGFR (Mut/WT). Respond using the label that marks the chosen record.
1
